Reference for the values: patent US20070117743A1

# Test system: LoVo
# Assay procedure: SRB colorimetric assay of cell growth and viability, LoVo
# Type: cell-based, human
# Recorded conditions: LOVO; 48 hours exposure; read-out: LC50 LOVO
Where a SMILES comes first, the peptide text is derived from it. Bridges are numbered along the chain shown (N, C = ends). [ ]: non-standard residue; d: D form. The star is where a group is joined. 2Nal = N[C@@H](Cc1ccc2ccccc2c1)C(=O)O; d(aIle) = CC[C@H](C)[C@@H](N)C(=O)O; d(aThr) = C[C@@H](O)[C@@H](N)C(=O)O; Hexanoyl(5-Me) = CC(C)CCCC(=O)*; Orn = NCCC[C@H](N)C(=O)O; Dhb = C/C=C(\N)C(=O)O
Measured attribute: CC50 (nM)
One number for each entry, in nM.

What value of CC50 has been reported for the following molecule? C/C=C1\NC(=O)[C@H](Cc2ccc3ccccc3c2)NC(=O)[C@@H](C(C)C)NC(=O)[C@@H]([C@@H](C)CC)NC(=O)[C@H](NC(=O)[C@H](NC(=O)[C@H](CCCN)NC(=O)[C@H]2CCCN2C(=O)[C@H](NC(=O)[C@@H](NC(=O)[C@@H](NC(=O)[C@H](NC(=O)CCCC(C)C)C(C)C)[C@@H](C)O)C(C)C)C(C)C)[C@@H](C)CC)[C@@H](C)OC(=O)[C@H](C(C)C)NC1=O [Compound 85, [Nal^3]-KF] ({Hexanoyl(5-Me)}-[dV]TV[dV][dP][Orn][d(aIle)][d(aThr)][d(aIle)][dV][2Nal][Dhb]V; ester 8-C)
192

###

# System: HeLa-APL
# Assay procedure: SRB colorimetric assay of cell growth and viability, HeLa-APL
# Type: cell-based, human
# Recorded conditions: 48 hours exposure; read-out: LC50 HELA-APL
Where a SMILES comes first, the peptide text is derived from it. Bridges are numbered along the chain shown (N, C = ends). [ ]: non-standard residue; d: D form. The star is where a group is joined. d(aIle) = CC[C@H](C)[C@@H](N)C(=O)O; d(aThr) = C[C@@H](O)[C@@H](N)C(=O)O; Hexanoyl(5-Me) = CC(C)CCCC(=O)*; Orn = NCCC[C@H](N)C(=O)O; Dhb = C/C=C(\N)C(=O)O
Please provide measured CC50 for the entries that follow.

Could you report CC50 for every entry in the following list?
1. C/C=C1\NC(=O)[C@H](Cc2ccccc2)NC(=O)[C@@H](C(C)C)NC(=O)[C@@H]([C@@H](C)CC)NC(=O)[C@H](NC(=O)[C@H](NC(=O)[C@H](CCCN)NC(=O)[C@H]2CCCN2C(=O)[C@H](NC(=O)[C@@H](NC(=O)[C@@H](NC(=O)CNC(=O)CCCC(C)C)[C@@H](C)O)C(C)C)C(C)C)[C@@H](C)CC)[C@@H](C)OC(=O)[C@H](C(C)C)NC1=O [Compound 33, [Gly^13]-KF]
2. C/C=C1\NC(=O)[C@H](Cc2ccccc2)NC(=O)[C@@H](C(C)C)NC(=O)[C@@H]([C@@H](C)CC)NC(=O)[C@H](NC(=O)[C@H](NC(=O)[C@H](CCCN)NC(=O)[C@H]2CCCN2C(=O)[C@H](NC(=O)[C@@H](NC(=O)[C@@H](NC(=O)[C@H](NC(=O)CCCCCCCCCCCCCCCCCCC)C(C)C)[C@@H](C)O)C(C)C)C(C)C)[C@@H](C)CC)[C@@H](C)OC(=O)[C@H](C(C)C)NC1=O [Compound 13, [Icos^14]-KF]

1: 6.96 µM; 2: 3.98 µM

Could you report CC50 for every entry in the following list?
1. C/C=C1\NC(=O)[C@H](Cc2ccccc2)NC(=O)[C@@H](C(C)C)NC(=O)[C@@H]([C@@H](C)CC)NC(=O)[C@H](NC(=O)[C@H](NC(=O)[C@H](CCCN)NC(=O)[C@H]2CCCN2C(=O)[C@H](NC(=O)[C@@H](NC(=O)CNC(=O)CCCC(C)C)C(C)C)C(C)C)[C@@H](C)CC)[C@@H](C)OC(=O)[C@H](C(C)C)NC1=O [Compound 53, [Gly^12, noD-Val^13]-KF] ({Hexanoyl(5-Me)}-GV[dV][dP][Orn][d(aIle)][d(aThr)][d(aIle)][dV]F[Dhb]V; ester 7-C)
2. C/C=C1\NC(=O)[C@H](Cc2ccccc2)NC(=O)[C@@H](C(C)C)NC(=O)[C@@H]([C@@H](C)CC)NC(=O)[C@H](NC(=O)[C@H](NC(=O)[C@H](CCCN)NC(=O)[C@H]2CCCN2C(=O)[C@H](NC(=O)[C@@H](NC(=O)[C@@H](NC(=O)[C@@H](CCC(=O)O)NC(=O)CCCC(C)C)[C@@H](C)O)C(C)C)C(C)C)[C@@H](C)CC)[C@@H](C)OC(=O)[C@H](C(C)C)NC1=O [Compound 39, [D-Glu^13]-KF]
3. C/C=C1\NC(=O)[C@H](Cc2ccccc2)NC(=O)[C@@H](C(C)C)NC(=O)[C@@H]([C@@H](C)CC)NC(=O)[C@H](NC(=O)[C@H](NC(=O)[C@H](CCCN)NC(=O)[C@H]2CCCN2C(=O)[C@H](NC(=O)[C@@H](NC(=O)[C@H](NC(=O)[C@H](NC(=O)CCCC(C)C)C(C)C)[C@H](C)O)C(C)C)C(C)C)[C@@H](C)CC)[C@@H](C)OC(=O)[C@H](C(C)C)NC1=O [Compound 7, [D-Thr^12]-KF]

["7.49 µM", "6.63 µM", "≥ 6.77 µM"]

###

# Tested on: SK-BR-3
# Assay procedure: SRB colorimetric assay of cell growth and viability, SK-BR-3
# Format: cell-based, human
# Recorded conditions: SK-BR-3; 48 hours exposure
Where a SMILES comes first, the peptide text is derived from it. Bridges are numbered along the chain shown (N, C = ends). [ ]: non-standard residue; d: D form. The star is where a group is joined. 2Nal = N[C@@H](Cc1ccc2ccccc2c1)C(=O)O; d(aIle) = CC[C@H](C)[C@@H](N)C(=O)O; d(aThr) = C[C@@H](O)[C@@H](N)C(=O)O; Hexanoyl(5-Me) = CC(C)CCCC(=O)*; Orn = NCCC[C@H](N)C(=O)O; Dhb = C/C=C(\N)C(=O)O
Please provide measured GI50 for the entries that follow.
One number for each entry, in nM.

Known results for molecules:
What value of GI50 has been reported for the following molecule? C/C=C1\NC(=O)[C@H](Cc2ccc3ccccc3c2)NC(=O)[C@@H](C(C)C)NC(=O)[C@@H]([C@@H](C)CC)NC(=O)[C@H](NC(=O)[C@H](NC(=O)[C@H](CCCN)NC(=O)[C@H]2CCCN2C(=O)[C@H](NC(=O)[C@@H](NC(=O)[C@@H](NC(=O)[C@H](NC(=O)CCCC(C)C)C(C)C)[C@@H](C)O)C(C)C)C(C)C)[C@@H](C)CC)[C@@H](C)OC(=O)[C@H](C(C)C)NC1=O [Compound 85, [Nal^3]-KF] ({Hexanoyl(5-Me)}-[dV]TV[dV][dP][Orn][d(aIle)][d(aThr)][d(aIle)][dV][2Nal][Dhb]V; ester 8-C)
37.1

What value of GI50 has been reported for the following molecule? C/C=C1\NC(=O)[C@H](Cc2ccccc2)NC(=O)[C@@H](C(C)C)NC(=O)[C@@H]([C@@H](C)CC)NC(=O)[C@H](NC(=O)[C@H](NC(=O)[C@H](CCCN)NC(=O)[C@H]2CCCN2C(=O)[C@H](NC(=O)[C@@H](NC(=O)[C@H](CCC(N)=O)NC(=O)[C@H](NC(=O)CCCC(C)C)C(C)C)C(C)C)C(C)C)[C@@H](C)CC)[C@@H](C)OC(=O)[C@H](C(C)C)NC1=O [Compound 119, [Gln^12]-KF] ({Hexanoyl(5-Me)}-[dV]QV[dV][dP][Orn][d(aIle)][d(aThr)][d(aIle)][dV]F[Dhb]V; ester 8-C)
258

Next item in the queue.
What value of GI50 has been reported for the following molecule? C/C=C1\NC(=O)[C@H](Cc2ccc(Cl)cc2)NC(=O)[C@@H](C(C)C)NC(=O)[C@@H]([C@@H](C)CC)NC(=O)[C@H](NC(=O)[C@H](NC(=O)[C@H](CCCN)NC(=O)[C@H]2CCCN2C(=O)[C@H](NC(=O)[C@@H](NC(=O)[C@@H](NC(=O)[C@H](NC(=O)CCCC(C)C)C(C)C)[C@@H](C)O)C(C)C)C(C)C)[C@@H](C)CC)[C@@H](C)OC(=O)[C@H](C(C)C)NC1=O [Compound 83, [Phe(4-Cl)^3]-KF]
34.2
